Assay: NCI Yeast Anticancer Drug Screen. Data for the mlh1 rad18 strain (AID 175)
Details: S. cerevisiae mlh1 rad18 strain growth inhibition; at 50.0 µM; hits give high values
This is part of a sample that, as a whole, favours compounds with a hit. Of some 79,000 tested, about 15% had one in any assay.
Ranges used to classify growth inhibition: bottom: < 70%; middle: ≥ 70% and < 90%; top: ≥ 90%

compound	qualitative.label
CC(C)SCC1CO1 (stereo not drawn)	bottom
Cc1cc(Cl)ccc1OCC(=O)Oc1c(Cl)c(Cl)c(Cl)c(Cl)c1Cl	middle
CCCCCCC(=O)OCc1ccc(-c2ccccc2)cc1	top
c1ccc(/C(=N\Nc2nc3ccccc3s2)c2ccccn2)cc1	middle
Cc1cccc(C)c1N1C(=O)C2Nc3ccccc3SC2C1=O (stereo not drawn)	top
Oc1ccc(-c2ccccc2)cc1Br	top
O=c1ccccc(Br)c1O	top
N#Cc1snc2sc(=O)sc12	top
Clc1ccccc1CN1COc2c(ccc3cccnc23)C1	bottom
O=C(O)c1ccc2c3c(ncnc13)-c1ccccc1C2=O	middle
COc1ccc(-c2c(C#N)c(-c3ccc(C)cc3)n(NS(=O)(=O)c3ccc(C)cc3)c(=O)c2C#N)cc1	middle
OC(Cc1ccccc1)(c1ccccc1)C(O)(Cc1ccccc1)c1ccccc1 (stereo not drawn)	middle
CC(C)(C)c1ccc(CN2CCN(C(c3ccccc3)c3ccc(Cl)cc3)CC2)cc1 (stereo not drawn)	bottom
CC(=O)c1c2c(cc3c1CC1(C3)Cc3ccc4c(c3C1=O)CCC4)CCC2 (stereo not drawn)	bottom
CCCCCCCCCCCCCC(=O)N1CCOCC1	top
C(C#Cc1ccccc1)#CCc1ccccc1	middle
COC(CCC[N+](C)(C)C)CC[N+](C)(C)C (stereo not drawn)	top
CN(C)CCC(=O)/C=C/c1ccccc1	bottom
CC(=O)OC1CCC23COC(CC(C)C2C)C3(Br)C1 (stereo not drawn)	bottom
O=C1Nc2ccccc2NC(=O)C(=C(c2ccccc2)c2ccccc2)C1=C(c1ccccc1)c1ccccc1	bottom
COc1ccccc1C1SC(c2ccccc2)(c2ccccc2)OC1=O (stereo not drawn)	middle
CCN(CC)c1ccc(N=Nc2ccc(-c3nc4cccn(C)c-4n3)cc2)cc1	middle
CCOC(=O)/C(=C/c1ccc2ccccc2c1)P(=O)(OCC)OCC	bottom
CCN(CC)CCCC(Nc1c2ccc(Cl)cc2nc2ccc(OC)cc12)c1cccs1 (stereo not drawn)	bottom
C/C=C(\C)C(=O)O[C@@H]1CC(C)(C)CC2C3=CCC4[C@]56CC[C@](O)(OC5)C(C)(C)C6CC[C@@]4(C)C3(C)CC[C@]21C(=O)O (stereo partly drawn)	middle
CC(C)c1ccc(C(=O)OC2CCCCC2)cc1	bottom
O=c1cc(CI)oc2ccccc12	top
O=C1C2=Cc3ccccc3CCN2c2ccccc21	middle
COc1cc(C(c2cc3c(cc2O)OCO3)N2CCOCC2)cc(OC)c1OC (stereo not drawn)	bottom

###

growth inhibition: recorded values
Assay: NCI Yeast Anticancer Drug Screen. Data for the rad50 strain (AID 155);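 also: 0% = growth of vehicle-only cultures of the same strain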
Conditions: S. cerevisiae rad50 strain growth inhibition; at 5.0 µM (retest, dose inferred, filed as 0.5); hits give high values
Compounds without any hit were thinned out: in the full panel of roughly 79,000, 15% have a hit.
result.type: growth inhibition (%)

> print(dat)
                                    compound  readout.value
 1  Nc1nc(N)c2c(ccc3c2ccn3Cc2cccc([N+](=O)[O-])c2)n1             39
 2  O=C(c1ccco1)N(C(=S)N1CCN(c2ccccn2)CC1)c1ccccc1              3
 3      COc1ccc(C(=O)C(CN2CCCC2)CN2CCCC2)cc1             -1
 4  CN(C)CCOc1ccc2c(c1)C(=O)/C(=C\c1ncc([N+](=O)[O-])n1C)C2             31
 5                       COC(=O)c1ccc(OC)cc1              2
 6          O=[N+]([O-])c1cc2cccnc2c2ncccc12             -8
 7                 Cc1ccc(O)c(Cc2ccccc2Cl)c1             -2
 8  C[N+](C)(C)c1nc(N)nc2c1ncn2C1OC(CO)C(O)C1O (configuration not stated)              9
 9                      O=Cc1ccc(O)c2ccccc12             -3
10  C=C(CCC(C)C1CCC2(C)C3=C(CC(O)C12C)C1(C)CCC(O)C(C)(C)C1CC3)C(C)C(=O)O (configuration not stated)             11
11        OC[P+](CO)(CO)C12CC3CC(CC(C3)C1)C2             12
12           C#CC(C)(C)Nc1c2ccccc2nc2ccccc12              7
13                             COCCCNC(=O)SC              0
14  CCc1cccc(C(C)(C)C)c1NC(=S)N/C=C(\c1ccccc1)S(=O)Cc1ccccc1 (configuration not stated)              2
15        C[Si](C)(c1ccccc1)C1CC(=O)CC(=O)C1             41
16  S=C1Nc2cnc3ccccc3c2SC1c1ccccc1 (configuration not stated)             -5
17  CCOC(=O)NC(c1ccc(C(NC(=O)OCC)P(=O)(O)NC23CC4CC(CC(C4)C2)C3)cc1)P(=O)(O)NC12CC3CC(CC(C3)C1)C2 (configuration not stated)             -8
